TEST_SYSTEM: Transcription factor Sp1 (Homo sapiens)
ASSAY_EXPLANATION: ATG_Sp1_CIS: Attagene CIS-FACTORIAL HepG2 Assay for human Specificity Protein 1 (Sp1) (AID 2282961)
CONDITION_DESCRIPTION: HepG2 Sp1 cis-reporter transcription, actives raise or lower the signal
Calls of active or inactive are those of the source. The calls were made as follows: active = hit-call score of the fitted dose curve at least 0.9, where 1 is the maximum; inactive = score below 0.9.
Your answer must be one of the following: 1 (active), 0 (inactive)

COMPOUND | ASSIGNED_CLASS
C=CC(=O)NC(C)(C)CC(C)=O | 0
NNCCO | 0
O=C1c2ccccc2C(=O)C1C(=O)C(c1ccccc1)c1ccc(Cl)cc1 (stereo not drawn) | 1
Fc1cccc(Cl)c1CCl | 1
O=S(=O)(F)C(F)(F)C(F)(F)C(F)(F)C(F)(F)F | 0

### Prompt I would be grateful if you could indicate the recorded call for Oc1c(Br)cc(Br)cc1Br .
### Response 1

### Prompt I would be grateful if you could indicate the recorded call for CC(C)(C#N)N=NC(C)(C)C#N .
### Response 0

### Prompt I would be grateful if you could indicate the recorded call for NC(=O)c1ccc(N)nc1 .
### Response 0

### Prompt I would be grateful if you could indicate the recorded call for O=S1OC[C@@H]2[C@H](CO1)[C@]1(Cl)C(Cl)=C(Cl)[C@@]2(Cl)C1(Cl)Cl (stereo partly drawn) .
### Response 0

### Prompt I would be grateful if you could indicate the recorded call for O=C(CBr)c1ccc(O)cc1 .
### Response 0

---

Read-out: Human Leukocyte Antigen - DR isotype (HLADR), HLA-DRA (gene 3122)
ASSAY_EXPLANATION: BSK_CASM3C_HLADR: BioMAP Diversity Plus: CASM3C Assay for Human Leukocyte Antigen - DR isotype (HLADR) Biomarker Activity (AID 2283043);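 also: cell-surface HLA-DR protein level quantified by ELISA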
CONDITION_DESCRIPTION: primary human coronary artery smooth muscle cells; actives raise or lower the signal
Active and inactive are the calls of the source. Rule for the calls: active = hit-call score of the fitted dose curve at least 0.9, where 1 is the maximum; inactive = score below 0.9.
Your answer must be one of the following: active, inactive

MOLECULE | ASSIGNED_CLASS
O=C(CCl)NCO | inactive

### Prompt I would be grateful if you could indicate the recorded call for CC(C)(C)c1ccccc1O .
### Response inactive

### Prompt I would be grateful if you could indicate the recorded call for O=C(N[C@H]1CN2CCC1CC2)c1ccc2c(c1)OCCO2 .
### Response inactive

### Prompt I would be grateful if you could indicate the recorded call for Clc1cccc(Cl)c1Cl .
### Response inactive

### Prompt I would be grateful if you could indicate the recorded call for c1ccc2sc(SNC3CCCCC3)nc2c1 .
### Response inactive

### Prompt I would be grateful if you could indicate the recorded call for O=C1C=CC(=O)c2ccccc21 .
### Response active

### Prompt I would be grateful if you could indicate the recorded call for Oc1cc(Cl)c(Cl)cc1Cl .
### Response inactive

### Prompt I would be grateful if you could indicate the recorded call for O=C(O)C1(c2ccc3c(c2)OC[C@H](Cc2ccc(-c4ccccc4)cc2)[C@H]3O)CCCC1 .
### Response active

### Prompt I would be grateful if you could indicate the recorded call for CC(C)(C)c1cc([N+](=O)[O-])cc(C(C)(C)C)c1O .
### Response inactive

### Prompt I would be grateful if you could indicate the recorded call for CC(C)=CC1C(C(=O)OCc2cccc(Oc3ccccc3)c2)C1(C)C (stereo not given) .
### Response active

---

TEST_SYSTEM: Cytochrome P450 2C19 (Homo sapiens) (UniProt P33261)
ASSAY_EXPLANATION: NVS_ADME_hCYP2C19: NovaScreen (NVS) CYP450-related Enzyme Activity (ADME) Assay for human CYP2C19 (AID 2283113)
Records with an inconclusive call do not appear. Activity calls are given as the source filed them. How the source made its calls: active means hit-call score of the fitted dose curve at least 0.9, where 1 is the maximum; inconclusive means response in the unintended direction; inactive means score below 0.9.
Your answer must be one of the following: active, inactive

COMPOUND | ASSIGNED_CLASS
OC(Cc1ccccc1Cl)(Cn1[nH]cnc1=S)C1(Cl)CC1 (configuration not stated) | active
CC(C=O)Cc1ccc2c(c1)OCO2 (configuration not stated) | active
CCOC(=O)CCN(SN(C)C(=O)Oc1cccc2c1OC(C)(C)C2)C(C)C | active
[Cl][Sn]([c]1ccccc1)([c]1ccccc1)[c]1ccccc1 | active
Cc1cc(C(C)(C)c2ccc(O)c(C)c2)ccc1O | active

### Prompt I would be grateful if you could indicate the recorded call for CNC(=O)CSP(=O)(OC)OC .
### Response active

### Prompt I would be grateful if you could indicate the recorded call for CN(C)C(=S)S .
### Response inactive

---

Read-out: Pselectin, SELP (gene 6403)
ASSAY_EXPLANATION: BSK_4H_Pselectin: BioMAP Diversity Plus: 4H Assay for Pselectin Biomarker Activity (AID 2283026)
CONDITION_DESCRIPTION: primary human endothelial cells (HUVEC); actives raise or lower the signal
The source made the active and inactive calls. The calls were made as follows: active = hit-call score of the fitted dose curve at least 0.9, where 1 is the maximum; inactive = score below 0.9.
Your answer must be one of the following: y (active), n (inactive)

Solved cases below.
COMPOUND | ASSIGNED_CLASS
CC(C)=CC1C(C(=O)OCc2cccc(Oc3ccccc3)c2)C1(C)C (configuration not stated) | n
[Cl][Sn]([c]1ccccc1)([c]1ccccc1)[c]1ccccc1 | y
O=[N+]([O-])c1ccc(Nc2ccccc2)cc1 | n
CCCCCCCCCCCCc1cccc(S(=O)(=O)O)c1 | n
OCCCCO | n
Oc1c(Cl)cc(Cl)cc1Cl | n

# input for lookup
### Prompt I would be grateful if you could indicate the recorded call for OC(Cc1ccccc1Cl)(Cn1[nH]cnc1=S)C1(Cl)CC1 (configuration not stated) .
### Response y

---

Quick reference: AC50 of the listed items.
System: TTR (gene 7276)
ASSAY_EXPLANATION: CCTE_GLTED_hTTR_0.125uM: CCTE's human Transthyretin (hTTR) Inhibition Assay, with 0.125uM TTR, Great Lakes Toxicology and Ecology Division (GLTED) Lab (AID 2284431);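 also: hits lower the fluorescence signal relative to DMSO baseline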
Calls of active or inactive are those of the source. Rule for the calls: active = hit-call score of the fitted dose curve at least 0.9, where 1 is the maximum; inactive = score below 0.9.

### Prompt // Input: Cc1cc(Cl)ccc1O . Output its AC50 only.
### Response 14.9 µM (active)

### Prompt // Input: CCOCn1c(-c2ccc(Cl)cc2)c(C#N)c(Br)c1C(F)(F)F . Output its AC50 only.
### Response 0.0346 µM (active)

### Prompt // Input: CCCCCCCCCCCCc1cccc(S(=O)(=O)O)c1 . Output its AC50 only.
### Response 6.89 µM (active)

### Prompt // Input: O=S1(=O)OC(c2cc(Br)c(O)c(Br)c2)(c2cc(Br)c(O)c(Br)c2)c2ccccc21 . Output its AC50 only.
### Response 0.109 µM (active)

### Prompt // Input: O=C(CBr)c1ccc(O)cc1 . Output its AC50 only.
### Response 4.69 µM (active)

---

Read-out: Monocyte Chemoattractant Protein-1 (MCP1), CCL2 (gene 6347)
ASSAY_EXPLANATION: BSK_4H_MCP1: BioMAP Diversity Plus: 4H Assay for Monocyte Chemoattractant Protein-1 (MCP1) Biomarker Activity (AID 2283018)
CONDITION_DESCRIPTION: primary human endothelial cells (HUVEC); actives raise or lower the signal
Activity calls are given as the source filed them. The calls were made as follows: active = hit-call score of the fitted dose curve at least 0.9, where 1 is the maximum; inactive = score below 0.9.
Your answer must be one of the following: t (active), f (inactive)

COMPOUND | ASSIGNED_CLASS
OC(Cc1ccccc1Cl)(Cn1cncn1)C1(Cl)CC1 (stereo not drawn) | f
Cc1ccc(OP(=O)(Oc2ccc(C)cc2C)Oc2ccc(C)cc2C)c(C)c1 | t

### Prompt I would be grateful if you could indicate the recorded call for C=CC(Cl)CCl (stereo not drawn) .
### Response f

### Prompt I would be grateful if you could indicate the recorded call for Cc1ccc2nc3sc(=O)sc3nc2c1 .
### Response t

### Prompt I would be grateful if you could indicate the recorded call for CCOC(=O)CC(=O)CCl .
### Response f

### Prompt I would be grateful if you could indicate the recorded call for [Cl][Sn]([c]1ccccc1)([c]1ccccc1)[c]1ccccc1 .
### Response t

### Prompt I would be grateful if you could indicate the recorded call for CC(C)O.CC(C)O.OCCN(CCO)CCO.OCCN(CCO)CCO.[Ti] .
### Response f

### Prompt I would be grateful if you could indicate the recorded call for OCCN(CCO)CCO .
### Response f

### Prompt I would be grateful if you could indicate the recorded call for N#CCCC(Br)(C#N)CBr (stereo not drawn) .
### Response t

### Prompt I would be grateful if you could indicate the recorded call for CC(C)(C)c1ccccc1O .
### Response f

---

Read-out: Basic fibroblast growth factor (bFGF), FGF2 (gene 2247)
ASSAY_EXPLANATION: BSK_MyoF_bFGF: BioMAP Diversity Plus: MyoF Assay for Basic fibroblast growth factor (bFGF) Biomarker Activity (AID 2284246)
CONDITION_DESCRIPTION: primary human lung fibroblasts
Calls of active or inactive are those of the source. Rule for the calls: active = hit-call score of the fitted dose curve at least 0.9, where 1 is the maximum; inactive = score below 0.9.
Your answer must be one of the following: active, inactive

Solved cases below.
CHEMICAL_SMILES | ASSIGNED_CLASS
[Cl][Sn]([c]1ccccc1)([c]1ccccc1)[c]1ccccc1 | active
c1ccc(-c2cccc(-c3ccccc3)c2)cc1 | inactive

### Prompt I would be grateful if you could indicate the recorded call for Oc1cccc(-c2ccccc2)c1 .
### Response inactive

Reference source for all entries: PubChem BioAssay (EPA / NIEHS)
